# Assay: Induction of NO release in PBS buffer in presence of rat serum at pH 7.4 incubated for 1 hr
# Parameters: concentration or dose not given beside the values
# Condition Details: pH 7.4, 1 h
# note: boundary value 40% maps to class 0; Activity below it maps to class 1

>  <Structure Notation>
COc1ccc(Cl)cc1C(=O)NCCc1ccc(C(=O)OCO/N=[N+](\[O-])N2CCCC2)cc1

>  <Assigned Category>
class 1

$$$$
>  <Structure Notation>
CCN(CC)/[N+]([O-])=N\OCOC(=O)[C@@H](Cc1ccccc1)NC(=O)[C@H]1CC[C@H](C(C)C)CC1

>  <Assigned Category>
class 0

$$$$
>  <Structure Notation>
CC(C)[C@H]1CC[C@H](C(=O)N[C@H](Cc2ccccc2)C(=O)OCCO[N+](=O)[O-])CC1

>  <Assigned Category>
class 1

$$$$
>  <Structure Notation>
CCN(CC)/[N+]([O-])=N/OCOC(=O)c1ccc(CCNC(=O)c2cc(Cl)ccc2OC)cc1

>  <Assigned Category>
class 0

$$$$
>  <Structure Notation>
COc1ccc(Cl)cc1C(=O)NCCc1ccc(C(=O)OCCO[N+](=O)[O-])cc1

>  <Assigned Category>
class 1

$$$$
